What koff was measured for each of the following?
Target: T1, human IL-17A (human, UniProt Q16552 20-155, limits assumed)
T1 construct: Bought from R&D Systems; also called IL-17 antigen (human IL17A)
T1 sequence (looked up): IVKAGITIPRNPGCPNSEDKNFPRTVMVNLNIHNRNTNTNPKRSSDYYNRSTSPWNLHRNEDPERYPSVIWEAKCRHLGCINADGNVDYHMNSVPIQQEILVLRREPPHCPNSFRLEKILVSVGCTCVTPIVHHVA
Assay: BLI (Octet Red96), antibody captured on AHC biosensor, human IL-17A in solution, 1:1 model, 25 C

What value of koff has been reported for the following binder? PP10762 (antibody, human IgG4 S228P, kappa, V domains shown, Humanized, human IgG4/kappa; also called VH6665/VL6667) VH: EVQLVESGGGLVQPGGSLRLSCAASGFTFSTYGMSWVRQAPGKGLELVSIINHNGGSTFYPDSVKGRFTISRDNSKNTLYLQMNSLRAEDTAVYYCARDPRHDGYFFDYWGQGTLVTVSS VL: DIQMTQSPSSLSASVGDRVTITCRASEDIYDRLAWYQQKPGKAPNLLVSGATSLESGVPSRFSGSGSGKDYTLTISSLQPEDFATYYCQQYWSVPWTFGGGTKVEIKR
< 1e-07 s⁻¹

Record request: koff value, item PP10764 (antibody, human IgG4 S228P, kappa, V domains shown, Humanized, human IgG4/kappa; also called VH6666/VL6666) VH: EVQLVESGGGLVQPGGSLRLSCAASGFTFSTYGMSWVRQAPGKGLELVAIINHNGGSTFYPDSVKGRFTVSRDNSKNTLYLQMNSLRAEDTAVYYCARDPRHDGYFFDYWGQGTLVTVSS VL: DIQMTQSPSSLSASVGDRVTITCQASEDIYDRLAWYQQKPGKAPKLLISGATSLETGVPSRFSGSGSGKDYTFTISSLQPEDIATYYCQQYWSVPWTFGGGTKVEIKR
< 1e-07 s⁻¹

What does the record list as koff for PP10767 (antibody, human IgG4 S228P, kappa, V domains shown, Humanized, human IgG4/kappa; also called VH6667/VL6666) VH: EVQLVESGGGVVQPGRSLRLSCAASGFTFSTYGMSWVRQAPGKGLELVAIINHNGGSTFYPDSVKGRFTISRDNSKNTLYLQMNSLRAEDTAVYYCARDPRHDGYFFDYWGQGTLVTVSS VL: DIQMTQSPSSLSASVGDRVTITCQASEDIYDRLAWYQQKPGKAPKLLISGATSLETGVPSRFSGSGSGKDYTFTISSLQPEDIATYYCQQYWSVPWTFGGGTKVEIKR ?
< 1e-07 s⁻¹
